Experiment: log P (acidic), HPLC on reversed-phase column (C 18), LC-MS acidic range
Format: physicochemical
Conditions: reversed-phase HPLC column (C 18); HPLC reversed-phase C 18, 55° C., pH 2.7, 0.1% formic acid/acetonitrile
Description: Called log P (HCOOH) in the table.
propertyLabel: chromatographic logP

CCS(=O)(=O)c1ccc(C(=O)NC)nc1-c1cn2cnc(C(F)(F)F)cc2n1: 1.95
Fc1ccc(F)c(-c2cn3cc(C(F)(F)F)ncc3n2)n1: 2.05

----------
Test: log P (neutral), HPLC on reversed-phase column (C 18), LC-MS neutral range
Type: physicochemical
Details: reversed-phase HPLC column (C 18), pH 7.8, HPLC reversed-phase C 18, 55° C., pH 7.8, ammonium hydrogencarbonate/acetonitrile
propertyLabel: chromatographic logP

Would you please look over these solved cases?
CCS(=O)(=O)c1ccc(C(=O)OC)nc1-c1nc2cc(C(F)(F)F)nnc2n1C: 2.19
CCSc1ccc(Br)nc1-c1nc2cc(C(F)(F)F)cnc2o1: 4.16
CCS(=O)(=O)c1ccc(S(=O)(=O)CC)c(-c2cn3cnc(C(F)(F)F)cc3n2)n1: 2.28

(1) CCS(=O)(=O)c1ccc(F)nc1-c1nc2cc(C(F)(F)F)ccc2n1C
(2) O=C(CBr)c1nc(F)ccc1F
(Q) Short answer wanted: higher chromatographic logP, 1 or 2 ? API: response body contains the label of the selected item.
(A) 1
(1: 2.96, 2: 1.93)

(1) CCS(=O)(=O)c1ccc(Cl)nc1-c1nc2cc(C(F)(F)F)nnc2n1C
(2) CCS(=O)(=O)c1ccc(-n2cc(C(F)(F)F)cn2)nc1-c1nc2cc(C(F)(F)F)ccc2n1C
(Q) Could you tell me which of 1 and 2 has the lower chromatographic logP reading? In your reply, give the label of the chosen option.
(A) 1
(1: 2.6, 2: 4.16)

(P) Cn1c(-c2nc(Cl)ccc2Cl)nc2cc(C(F)(F)F)nnc21
(Q) CCSc1ccc(Br)nc1C(=O)O
(Q) # min-compare on chromatographic logP between P and Q // return label of chosen record
(A) Q
(Q: 1.79, P: 2.65)

----------
Assay: log P (neutral), HPLC on reversed-phase column (C 18), LC-MS neutral range
Assay type: physicochemical
Details: HPLC reversed-phase C 18, 55° C., pH 7.8, ammonium hydrogencarbonate/acetonitrile
propertyLabel: log P (neutral)

CCS(=O)(=O)c1ccc(-n2nccn2)nc1-c1nc2cc(C(F)(F)F)nnc2n1C: 2.21
O=C(CBr)c1nc(F)ccc1F: 1.95
CCS(=O)(=O)c1ccc(-n2ccc(C(F)(F)F)n2)nc1-c1nc2cc(C(F)(F)F)cnc2o1: 4.17
CCS(=O)(=O)c1ccc(-n2cc(Cl)cn2)nc1-c1nc2cc(C(F)(F)F)cnc2n1C: 3.9
CCS(=O)(=O)c1ccc(NC(=O)C(F)(F)F)nc1-c1nc2cc(C(F)(F)F)cnc2n1C: 2.00

(a) CCS(=O)(=O)c1ccc(-n2cccn2)nc1-c1cn2cnc(C(F)(F)F)cc2n1
(b) CC[S+]([O-])c1ccc(-n2cc(C(F)(F)F)cn2)nc1-c1nc2cc(C(F)(F)F)cnc2n1C (centres unmarked)
(Q) Lab note: check whether a or b has the lower measured log P (neutral). State your choice using its label.
(A) a
(a: 2.58, b: 4.23)

----------
Experiment: log P (neutral), HPLC on reversed-phase column (C 18), LC-MS neutral range
Assay type: physicochemical
Conditions: reversed-phase HPLC column (C 18), pH 7.8, HPLC reversed-phase C 18, 55° C., pH 7.8, ammonium hydrogencarbonate/acetonitrile
propertyLabel: chromatographic logP

These solved cases illustrate the format of a correct answer.
CCS(=O)(=O)c1ccc(F)nc1-c1nc2cc(C(F)(F)F)cnc2n1C: 2.8
FC1(F)Oc2cc3nc(-c4nc(Cl)ccc4Cl)[nH]c3cc2O1: 3.2
CCS(=O)(=O)c1ccc(N)nc1-c1nc2cc3c(cc2n1C)OC(F)(F)O3: 2.1
CCSc1ccc(F)nc1-c1cn2cnc(C(F)(F)F)cc2n1: 2.78
CCSc1ccc(C(=O)OC)nc1-c1nc2cc(C(F)(F)F)cnc2n1C: 3.25

(a) CCS(=O)(=O)c1ccc(NC(C)=O)nc1-c1nc2cc3c(cc2n1C)OC(F)(F)O3
(b) CON(C)C(=O)c1nc(F)ccc1F
(Q) a or b : whose chromatographic logP is greater? Respond with the label that goes with your answer.
(A) a
(a: 2.42, b: 1.05)

----------
Assay: log P (neutral), HPLC on reversed-phase column (C 18), LC-MS neutral range
Assay type: physicochemical
Conditions: HPLC reversed-phase C 18, 55° C., pH 7.8, ammonium hydrogencarbonate/acetonitrile
Protocol: Temperature: 55° C. […] Called log P (neutral) in the table.
propertyLabel: log P (neutral)

These recorded examples may help you get a feel for the data.
CCS(=O)(=O)c1ccc(-n2cncn2)nc1-c1cn2cnc(C(F)(F)F)cc2n1: 2.19
CCS(=O)(=O)c1ccc(-n2cc(Cl)cn2)nc1-c1nc2cc(C(F)(F)F)cnc2o1: 4.01

(I) CCS(=O)(=O)c1ccc(NC(=O)CSC)nc1-c1nc2cc(C(F)(F)F)cnc2n1C
(II) CCS(=O)(=O)c1ccc(-n2ccc(C(F)(F)F)n2)nc1-c1nc2cc(C(F)(F)F)ccc2n1C
(Q) Parameter metric = log P (neutral). Return the lower-valued option from I and II . Answer by quoting the chosen item's label.
(A) I
(I: 2.79, II: 4.21)

----------
Assay: log P (neutral), HPLC on reversed-phase column (C 18), LC-MS neutral range
Type: physicochemical
Settings: HPLC reversed-phase C 18, 55° C., pH 7.8, ammonium hydrogencarbonate/acetonitrile
propertyLabel: log P (neutral)

CCS(=O)(=O)c1ccc(NC(=O)C(F)(F)F)nc1-c1nc2cc(C(F)(F)F)cnc2o1 [Example I-40]: 3.09
CCS(=O)(=O)c1ccc(NC(=O)C(C)CS(C)(=O)=O)nc1-c1nc2cc(C(F)(F)F)cnc2n1C (stereo not drawn) [Example I-21]: 2.31
CCS(=O)(=O)c1ccc(-n2nccn2)nc1-c1nc2cc(C(F)(F)F)cnc2n1C [Example I-23]: 2.66
CCS(=O)(=O)c1ccc(N)nc1-c1cn2cnc(C(F)(F)F)cc2n1 [Example I-31]: 1.59
CCS(=O)(=O)c1ccc(NC(=O)C(F)(F)F)nc1-c1nc2cc(C(F)(F)F)ccc2n1C [Example I-11]: 3.27
CCS(=O)(=O)c1ccc(NC(=O)C2CC2)nc1-c1nc2cc(C(F)(F)F)cnc2n1C [Example I-16]: 2.76
CCS(=O)(=O)c1ccc(-n2cc(F)cn2)nc1-c1nc2cc(C(F)(F)F)cnc2n1C [Example I-24]: 3.55
CCS(=O)(=O)c1ccc(-n2nccn2)nc1-c1cn2cnc(C(F)(F)F)cc2n1 [Example I-27]: 2.28
CCS(=O)(=O)c1ccc(-n2cncn2)nc1-c1nc2cc(C(F)(F)F)nnc2n1C [Example I-43]: 2.08
CCS(=O)(=O)c1ccc(NC2COC2)nc1-c1nc2cc(C(F)(F)F)cnc2n1C [Example I-26]: 2.27
CCS(=O)(=O)c1ccc(NC(=O)C2CC2)nc1-c1nc2cc(C(F)(F)F)ccc2n1C [Example I-10]: 2.92
CCS(=O)(=O)c1ccc(NC(C)=O)nc1-c1cn2cnc(C(F)(F)F)cc2n1 [Example I-32]: 1.99

This collection of values is drawn from patent US10667517B2.
